Tested on: Human ovarian cancer cell SKOV-3
Assay: Cell proliferative activity (MTT / cck-8)
Assay type: cell-based
Conditions: SK-OV-3, incubated for 96 hours, read-out: Half-Inhibitory Concentration IC50 Human ovarian cancer cell SKOV-3
Protocol: Tumor cell line A375: human melanoma cell; H460: lung adenocarcinoma cell; Hela: human cervical cancer cell; HepG2: human liver cancer cell; and SKOV-3: human ovarian cancer cell, were all purchased from ATCC and cultured to logarithmic phase according to the cultivation protocol recommended by ATCC. The cells in the logarithmic phase were plated onto a 96-well plate at 2000-3000 cells/well; in the case of adherent cells, the cells should be adherent to the wall. […]
pIC50: −log10 of the molar value.
QUANTITY KIND: pIC50

>>> endpoint_value("CCCCCN(c1ccc(OC)c(OCCCC(=O)NO)c1)c1nc(C)nc2ccccc12")
"< 6.00"
>>> endpoint_value("Cc1nc(N(C)c2ccc(OCCCCC(=O)NO)cc2)c2ccccc2n1")
"6.00 to 7.00"
>>> endpoint_value("Cc1nc(N(C)c2cccc(OCC(=O)NO)c2)c2ccccc2n1")
"6.00 to 7.00"
>>> endpoint_value("CN(c1ccc(OCCCCCC(=O)NO)cc1)c1ncnc2ccccc12")
"< 6.00"
>>> endpoint_value("COc1ccc(N(C)c2nc(C)nc3ccccc23)cc1OCCCC(=O)NO")
"7.00 to 8.00"
>>> endpoint_value("CN(c1ccc(OCc2ccc(C(=O)NO)cc2)cc1)c1ncnc2ccccc12")
"< 6.00"
>>> endpoint_value("Cc1nc(N(C)c2ccc(OCc3ccc(C(=O)NO)cc3)cc2)c2ccccc2n1")
"< 6.00"
